Data provenance: patent US20170050962A1

What MEC (minimum effective concentration) was measured for each of the following?
tested on: recombinant guanylate cyclase reporter cell line; experiment: Effect on a recombinant guanylate cyclase reporter cell line; type: cell-based; conditions: in some cases mean values for individual determinations
Quick note: unit goes after the number.

Completed entries (count: 6):
Cc1cc(OCc2c(F)cccc2F)c2nc(C)c(-c3ccc(OCC(C)(C)N)nc3)n2c1; 0.3 µM
Cc1cc(OCc2c(F)cccc2F)c2nc(C)c(C3=CC(=NO)CC(C)(C)N3)n2c1 (stereo in doubt); 0.03 µM
Cc1cc(OCc2c(F)cccc2F)c2nc(C)c(-c3ccc(=O)n(CC(C)(C)N)c3)n2c1; 1.0 µM
Cc1cc(OCc2c(F)cccc2F)c2nc(C)c(-c3ccn(CC(C)(C)N)c(=O)c3)n2c1; 1.0 µM
Cc1cc(OCc2c(F)cccc2F)c2nc(C)c(-c3cc[nH]c(=O)c3)n2c1; 1.0 µM
Cc1cc(OCc2c(F)cccc2F)c2nc(C)c(-c3ccnc(OCC(C)(C)N)c3)n2c1; 0.03 µM

Now turn to the next compound.
Lookup: If you can, please state the reported MEC (minimum effective concentration) value of Cc1cc(OCc2c(F)cccc2F)c2nc(C)c(-c3nc(OCC(C)(C)N)n[nH]3)n2c1 .
Found: 3.0 µM
